B1: CAMK2B (parent)
chain: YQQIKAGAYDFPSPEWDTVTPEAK

Variants of: B1
Experiment: protein stability index of a GFP-peptide fusion (GPS, HEK-293T) (PSI 1-6); higher = more stable;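 also: lentivirally expressed fusions sorted by FACS into six bins by GFP to DsRed ratio, PSI derived from sequencing read proportions per bin multiplied by bin number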
Conditions: c terminus: a fixed tail appended
ATTRIBUTE_MEASURED: protein stability index
Lab note: record just the number, no unit beside it.

1) YQQIKAGAYDFPSPEHDTVTPEAK	4.35
2) YQQIKAGAYDGPSPEWDTVTPEAK	4
3) YQQIKAGAYDFPSPEWDTVTPEAW	2.63

Sure, the documented protein stability index for `YQQIKAGAYDFPSPEWKTVTPEAK` is 2.69

Sure, the documented protein stability index for `VQQIKAGAYDFPSPEWDTVTPEAK` is 4.69

Sure, the documented protein stability index for `YQQIKAGAYDFPSPEWDTVTPECK` is 2.98

Sure, the documented protein stability index for `YQQIKAGAYDFPSPEWLTVTPEAK` is 2.51

Sure, the documented protein stability index for `YQQDKAGAYDFPSPEWDTVTPEAK` is 4.32

Sure, the documented protein stability index for `YQQIKAGAYDFPSPKWDTVTPEAK` is 2.88
